System: UACC-257
Protocol Summary: NCI tumour cell line growth inhibition, 48 h
Calls of active or inactive are those of the source. Rule as the data show it: active = GI50 up to about 1.1 µM and inactive = higher.
Quantity Name: GI50

INPUT: Which GI50 value belongs to [O-][S+](CCc1ccccc1)Nc1ccccc1 (stereo not given) ?
OUTPUT: 99.3 µM (inactive)

INPUT: Which GI50 value belongs to CCOC(OC1=C(C#N)CCCC1)C(C)[Se]c1ccccc1 (stereo not given) ?
OUTPUT: 74.6 µM (inactive)

INPUT: Which GI50 value belongs to `Nc1nc(Cl)nc(NCc2ccccc2)n1` ?
OUTPUT: > 100 µM (inactive)

INPUT: Which GI50 value belongs to `O=C(CN(c1ccc(S(=O)(=O)O)cc1)c1ccc(S(=O)(=O)O)cc1)Nn1cnc2ccc(S(=O)(=O)N(c3ccc(S(=O)(=O)O)cc3)c3ccc(S(=O)(=O)O)cc3)cc2c1=O` ?
OUTPUT: > 100 µM (inactive)

INPUT: Which GI50 value belongs to COc1cc(=O)oc(/C=C/C=C/C=C/C(C)=C\C2(C)OC(C)C(C)(O)C2O)c1C (stereo not given) ?
OUTPUT: > 100 µM (inactive)

INPUT: Which GI50 value belongs to `O=[N+]([O-])c1ccc(Oc2c(Cl)cc(S(=O)(=O)N/C(=N\O)Nc3ccc(Cl)cc3)cc2Cl)c(Cl)c1` ?
OUTPUT: 15.6 µM (inactive)

INPUT: Which GI50 value belongs to `CCCCN(CCCC)CC(=O)c1ccc2cc(Cl)c3ccccc3c2c1` ?
OUTPUT: 31.9 µM (inactive)

INPUT: Which GI50 value belongs to `COc1cc(/C=C2\N=C(c3ccccc3)N(c3nc4ccc(Sc5ccccc5)cc4[nH]3)C2=O)cc(OC)c1OC` ?
OUTPUT: 19.6 µM (inactive)

INPUT: Which GI50 value belongs to `O=C(c1ccccc1)c1oc2ccc(Br)cc2c1-c1cnn(-c2ccccc2)c1` ?
OUTPUT: > 100 µM (inactive)

INPUT: Which GI50 value belongs to `N#Cc1c2c(c(N=[N+]=[N-])n3c1nc1ccccc13)CCCC2` ?
OUTPUT: 1.71 µM (inactive)

INPUT: Which GI50 value belongs to `COC(=O)C1=C(CCCCO[Si](C)(C)C(C)(C)C)NC(=O)N2[C@H](CCOCc3ccccc3)CC[C@@H]12` ?
OUTPUT: 24.7 µM (inactive)

INPUT: Which GI50 value belongs to `O=C(CON1C(=O)c2ccccc2C1=O)c1ccccc1` ?
OUTPUT: 34.8 µM (inactive)

INPUT: Which GI50 value belongs to `Cc1cc2c(c3nocc13)C(=O)c1ccccc1C2=O` ?
OUTPUT: > 100 µM (inactive)

INPUT: Which GI50 value belongs to `COc1cc(/C=C2\C[C@H]3[C@@H]4CC=C5C[C@@H](N6CCCC6)CC[C@]5(C)[C@H]4CC[C@]3(C)[C@H]2O)cc(OC)c1OC` ?
OUTPUT: 15 µM (inactive)

INPUT: Which GI50 value belongs to O=C1/C(=C\c2cccc(Oc3ccccc3)c2)SC(c2ccccc2)N1c1cccc(Cl)c1 (stereo not given) ?
OUTPUT: > 100 µM (inactive)

INPUT: Which GI50 value belongs to `CC(C)C/C(CC(=O)CCC(=O)Nc1ccccc1[N+](=O)[O-])=N\NC(=O)c1cc2ccccc2cc1O` ?
OUTPUT: 37 µM (inactive)

INPUT: Which GI50 value belongs to `Cc1nc2c(n1Cc1ccc(Cl)cc1)C(=O)c1ccccc1C2=O` ?
OUTPUT: > 75 µM (inactive)

INPUT: Which GI50 value belongs to O=C(OC1CCC2OOC1O2)c1ccc([N+](=O)[O-])cc1 (stereo not given) ?
OUTPUT: > 100 µM (inactive)

INPUT: Which GI50 value belongs to `Brc1ccc(CCNCCN2CCCCC2)cc1` ?
OUTPUT: 14.8 µM (inactive)

INPUT: Which GI50 value belongs to `Cn1c(=O)nc2n(-c3ccc(Cl)cc3)c(-c3ccccc3)c(-c3ccccc3)nc-2c1=O` ?
OUTPUT: 24.3 µM (inactive)
